Let's look at some compounds and their measured inhibition at 0.2 µM.
# ASSAY_SYSTEM: canine TRPM8 (Canis lupus familiaris, UniProt Q1A7N1)
# Construct: expressed in transfected cells
# Sequence (Q1A7N1 1-1104): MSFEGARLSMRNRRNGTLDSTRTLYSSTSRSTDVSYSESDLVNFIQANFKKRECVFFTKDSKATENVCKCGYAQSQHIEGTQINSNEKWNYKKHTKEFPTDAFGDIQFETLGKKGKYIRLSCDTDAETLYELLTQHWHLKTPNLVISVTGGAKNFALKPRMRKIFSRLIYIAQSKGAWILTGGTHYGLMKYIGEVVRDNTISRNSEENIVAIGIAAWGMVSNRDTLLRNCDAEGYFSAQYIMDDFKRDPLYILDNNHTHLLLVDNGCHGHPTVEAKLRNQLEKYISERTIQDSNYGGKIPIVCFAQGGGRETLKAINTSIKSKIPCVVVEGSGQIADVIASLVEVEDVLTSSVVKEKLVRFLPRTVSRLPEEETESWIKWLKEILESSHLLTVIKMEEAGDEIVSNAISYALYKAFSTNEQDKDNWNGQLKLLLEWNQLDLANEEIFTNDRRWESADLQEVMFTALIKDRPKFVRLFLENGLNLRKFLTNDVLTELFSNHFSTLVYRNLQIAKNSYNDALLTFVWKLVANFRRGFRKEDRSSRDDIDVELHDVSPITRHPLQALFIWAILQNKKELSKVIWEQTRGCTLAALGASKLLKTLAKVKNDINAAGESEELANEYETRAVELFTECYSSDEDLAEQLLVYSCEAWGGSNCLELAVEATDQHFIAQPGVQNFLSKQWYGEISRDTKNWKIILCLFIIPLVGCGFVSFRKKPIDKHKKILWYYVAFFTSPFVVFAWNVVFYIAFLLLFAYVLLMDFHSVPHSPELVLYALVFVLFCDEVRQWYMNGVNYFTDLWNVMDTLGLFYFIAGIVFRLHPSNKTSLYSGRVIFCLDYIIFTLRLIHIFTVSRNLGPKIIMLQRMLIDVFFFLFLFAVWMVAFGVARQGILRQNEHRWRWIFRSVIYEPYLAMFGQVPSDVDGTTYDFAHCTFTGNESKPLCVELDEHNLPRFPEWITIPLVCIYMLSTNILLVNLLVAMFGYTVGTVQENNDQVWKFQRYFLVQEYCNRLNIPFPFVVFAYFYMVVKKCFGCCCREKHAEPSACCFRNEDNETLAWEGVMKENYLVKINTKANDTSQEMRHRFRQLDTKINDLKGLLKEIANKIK
# EXPERIMENTAL_DETAILS: In vitro canine TRPM8 functional assay (Ca2+-sensitive fluorescent dye, FLIPR or FDSS, icilin challenge)
# Type: cell-based
# ASSAY_CONTEXT: 0.2 μM compound; HEK293 cells stably expressing canine TRPM8; icilin challenge
Value expressed in %; do not type the unit.

Some compounds with known inhibition at 0.2 µM results, for comparison:
> print(dat)
                                   compound  value.observed
1  Cc1c(N(Cc2ccc(OC(F)(F)F)cc2)S(=O)(=O)CCN2CCC(F)(F)C2)sc2ccccc12 [Cpd 45]              99
2  CCN(CCS(=O)(=O)N(CCCCC(F)(F)F)c1sc2ccccc2c1C)CC(C)C [Cpd 89]              99
3  Cc1c(N(Cc2ccc(OC(F)(F)F)cc2)S(=O)(=O)CCN2CCNC(=O)C2)sc2ccccc12 [Cpd 27]             101
4  Cc1c(N(Cc2ccc(OC(F)(F)F)cc2)S(=O)(=O)CCN2CCCC(F)(F)C2)sc2ccccc12 [Cpd 43]             101
5  Cc1c(N(Cc2ccc(OC(F)(F)F)cc2)S(=O)(=O)CCN2CC(F)(F)C2)sc2ccccc12 [Cpd 46]             101

Challenge: // lookup inhibition at 0.2 µM | system=canine TRPM8 (Canis lupus familiaris, UniProt Q1A7N1) | key= CN(CCS(=O)(=O)N(Cc1ccc(OC(F)(F)F)cc1)c1sc2ccccc2c1Br)Cc1ccccc1 [Cpd 61]
Response given: 102

Challenge: Which inhibition at 0.2 µM is reported with canine TRPM8 (Canis lupus familiaris, UniProt Q1A7N1) for this entry: Cc1c(N(Cc2ccc(OC(F)(F)F)cc2)S(=O)(=O)CCNCC(F)(F)F)sc2ccccc12 [Cpd 60] ?
Response given: 100

Challenge: Recorded inhibition at 0.2 µM for Cc1c(N(Cc2ccc(OC(F)(F)F)cc2)S(=O)(=O)CCN2CCC(F)(F)CC2)sc2ccccc12 [Cpd 42] with canine TRPM8 (Canis lupus familiaris, UniProt Q1A7N1), please?
Response given: 98

Challenge: Form field - read-out: inhibition at 0.2 µM; system: canine TRPM8 (Canis lupus familiaris, UniProt Q1A7N1); submitted item: Cc1c(N(Cc2ccc(OC(F)(F)F)cc2)S(=O)(=O)CCN2CC(C)CC(C)C2)sc2ccccc12 (stereo not shown) [Cpd 21]
Response given: 100

Challenge: Can you look up inhibition at 0.2 µM on canine TRPM8 (Canis lupus familiaris, UniProt Q1A7N1) for Cc1c(N(CCCCC(F)(F)F)S(=O)(=O)CCN(C)Cc2ccccc2)sc2ccccc12 [Cpd 79] ?
Response given: 98

---

The following molecules are shown together with reported log10 of IC50 values.
# ASSAY_SYSTEM: canine TRPM8 (Canis lupus familiaris)
# Construct: expressed in transfected cells
# EXPERIMENTAL_DETAILS: In vitro canine TRPM8 functional assay (Ca2+-sensitive fluorescent dye, FLIPR or FDSS, icilin challenge)
# Format: cell-based
# ASSAY_CONTEXT: HEK293 cells stably expressing canine TRPM8; icilin at approx. 80% maximal response; eight-point dose-response; single determinations unless otherwise noted; read-out: IC50
Plainly stated, the numbers are log10 of IC50 given in nM.

Illustrative cases are given below, each with its answer.
> print(dat)
                                item.smiles  readout.label  value.observed
1  O=S(=O)(CCN1CCc2ccccc2C1)N(Cc1ccc(OC(F)(F)F)cc1)c1ccc2ccccc2c1  log10 of IC50            1.71
2  CCCN(C)CCS(=O)(=O)N(Cc1ccc(OC(F)(F)F)cc1)c1sc2ccccc2c1C  log10 of IC50            1.46
3  Cc1c(N(Cc2ccc(OC(F)(F)F)cc2)S(=O)(=O)CCN(C)CCO)sc2ccccc12  log10 of IC50            1.46

Challenge: Endpoint output: log10 of IC50 of Cc1c(N(Cc2ccc(F)c(C(F)(F)F)c2)S(=O)(=O)CCN2CCCC(F)(F)C2)sc2ccccc12 . Value?
Response given: 0.60

Challenge: Consider the molecule O=S(=O)(CCN1CCCCC1)N(Cc1ccc(OC(F)(F)F)cc1)c1cc2ccccc2s1 and give its measured log10 of IC50.
Response given: 1.52

Challenge: Which log10 of IC50 value is on record for Cc1c(N(Cc2ccc(OC(F)(F)F)cc2)S(=O)(=O)CCN2CCC(C)CC2)sc2ccccc12 ?
Response given: 1.53

Challenge: Consider the molecule O=S(=O)(CCN1CCC(F)(F)C1)N(Cc1ccc(OC(F)(F)F)cc1)c1sc2ccccc2c1Br and give its measured log10 of IC50.
Response given: 1.86

Challenge: // query log10 of IC50 value for entry CCCN(CCC)CCS(=O)(=O)N(Cc1ccc(OC(F)(F)F)cc1)c1sc2ccccc2c1C
Response given: 0.95

---

IC50 values, listed per item
# ASSAY_SYSTEM: canine TRPM8 (Canis lupus familiaris, UniProt Q1A7N1)
# Construct: expressed in transfected cells
# EXPERIMENTAL_DETAILS: In vitro canine TRPM8 functional assay (Ca2+-sensitive fluorescent dye, FLIPR or FDSS, icilin challenge)
# Type: cell-based
# ASSAY_CONTEXT: HEK293 cells stably expressing canine TRPM8; icilin at approx. 80% maximal response; eight-point dose-response; single determinations unless otherwise noted; read-out: IC50

Past entries and their recorded results:
> print(dat)
                                    molecule  readout.label  value.observed
 1  O=S(=O)(CCN1CCSCC1)N(Cc1ccc(OC(F)(F)F)cc1)c1ccc2ccccc2c1 [Cpd 52]           IC50           42 nM
 2  CCCN(CCS(=O)(=O)N(CCC1CC1)c1sc2ccccc2c1C)CC(C)C [Cpd 95]           IC50           23 nM
 3  O=S(=O)(CCN1CCOCC1)N(Cc1ccc(OC(F)(F)F)cc1)c1ccc2ccccc2c1 [Cpd 51]           IC50           28 nM
 4  Cc1c(N(Cc2ccc(OC(F)(F)F)cc2)S(=O)(=O)CCN2CCc3ccccc3C2)sc2ccccc12 [Cpd 40]           IC50           29 nM
 5  O=S(=O)(CCN1CC(F)(F)C1)N(Cc1ccc(OC(F)(F)F)cc1)c1ccc2ccccc2c1 [Cpd 55]           IC50          109 nM
 6  CCN(CCS(=O)(=O)N(CCC1CC1)c1sc2ccccc2c1C)CC(C)C [Cpd 94]           IC50           27 nM
 7  Cc1c(N(Cc2ccc(OC(F)(F)F)cc2)S(=O)(=O)CCN2CCNC(=O)C2)sc2ccccc12 [Cpd 27]           IC50           20 nM
 8  CC(C)CN(CCS(=O)(=O)N(Cc1ccc(OC(F)(F)F)cc1)c1sc2ccccc2c1Br)CC(C)C [Cpd 63]           IC50            6 nM
 9  O=S(=O)(CCN1CCCCC1)N(Cc1ccc(OC(F)(F)F)cc1)c1sc2ccccc2c1Br [Cpd 64]           IC50           27 nM
10  CCN(CCS(=O)(=O)N(CCCCC(F)(F)F)c1sc2ccccc2c1C)CC(C)C [Cpd 89]           IC50           36 nM

Challenge: // lookup IC50 for Cc1c(N(Cc2ccc(OC(F)(F)F)cc2)S(=O)(=O)CCN2CCCC2C)sc2ccccc12 (stereo not drawn) [Cpd 37]
Response given: 20 nM

Challenge: Could you share which IC50 value was measured for CN(CCS(=O)(=O)N(Cc1ccc(OC(F)(F)F)cc1)c1ccc2ccccc2c1)Cc1ccccc1 [Cpd 57] ?
Response given: 52 nM

Challenge: State the recorded IC50 for this entry: CC(=O)N(CCS(=O)(=O)N(CCC1CC1)c1sc2ccccc2c1C)CC(C)C [Cpd 92]
Response given: 35 nM

Challenge: If you can, please state the reported IC50 value of CCC(=O)N(CCS(=O)(=O)N(CCCCC(F)(F)F)c1sc2ccccc2c1C)CC(C)C [Cpd 90] .
Response given: 44 nM

Challenge: Fill in: IC50 of CCCCN(C)CCS(=O)(=O)N(Cc1ccc(OC(F)(F)F)cc1)c1sc2ccccc2c1C [Cpd 12] is ___
Response given: 43 nM

---

Property: IC50; scope: individual molecules
# ASSAY_SYSTEM: canine TRPM8 (Canis lupus familiaris, UniProt Q1A7N1)
# Construct: expressed in transfected cells
# EXPERIMENTAL_DETAILS: In vitro canine TRPM8 functional assay (Ca2+-sensitive fluorescent dye, FLIPR or FDSS, icilin challenge)
# Type: cell-based
# ASSAY_CONTEXT: HEK293 cells stably expressing canine TRPM8; icilin at approx. 80% maximal response; eight-point dose-response; single determinations unless otherwise noted; read-out: IC50
API: value field is a number in nM; no unit string.

Here's what some known entries look like.
> print(dat)
                                   molecule                              assay.system  value.observed
1  Cc1c(N(Cc2ccc(OC(F)(F)F)cc2)S(=O)(=O)CCN2CCC(CO)CC2)sc2ccccc12 [Cpd 23]  canine TRPM8 (Canis lupus familiaris, UniProt Q1A7N1)              44
2  Cc1c(N(Cc2ccc(OC(F)(F)F)cc2)S(=O)(=O)CCN2CCC[C@@H]2C(F)(F)F)sc2ccccc12 [Cpd 72]  canine TRPM8 (Canis lupus familiaris, UniProt Q1A7N1)              10
3  Cc1c(N(Cc2ccc(OC(F)(F)F)cc2)S(=O)(=O)CCN(CC(C)C)CC(C)C)sc2ccccc12 [Cpd 16]  canine TRPM8 (Canis lupus familiaris, UniProt Q1A7N1)               6

Challenge: Would you kindly share the measured IC50 for Cc1c(N(Cc2ccc(OC(F)(F)F)cc2)S(=O)(=O)CCNCCC(F)(F)F)sc2ccccc12 [Cpd 13] ?
Response given: 74
